TARGET OR SYSTEM: recombinant human TDP2 (hTDP2) (Homo sapiens)
Sequence (O95551 whole entry): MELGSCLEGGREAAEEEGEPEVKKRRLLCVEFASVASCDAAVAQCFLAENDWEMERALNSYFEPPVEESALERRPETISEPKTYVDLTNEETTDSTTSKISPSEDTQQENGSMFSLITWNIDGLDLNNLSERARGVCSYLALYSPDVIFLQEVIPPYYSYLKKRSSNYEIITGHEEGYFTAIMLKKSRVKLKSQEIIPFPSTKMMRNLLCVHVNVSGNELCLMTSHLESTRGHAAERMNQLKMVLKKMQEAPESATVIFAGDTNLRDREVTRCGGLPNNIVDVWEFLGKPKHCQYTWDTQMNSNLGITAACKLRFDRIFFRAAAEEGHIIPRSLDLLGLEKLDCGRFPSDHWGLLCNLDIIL
TEST PROTOCOL: Inhibition of recombinant human TDP2
MEASURED PROPERTY: IC50 (µM)
Numeric answer only, unit µM assumed.

Request: Data request, read-out IC50, for O=C(Cc1ccccc1)NC(CSSCC(NC(=O)Cc1ccccc1)C(=O)O)C(=O)O (centres unmarked)
Response: 9.5

Request: Cool, now COc1ccc(CC2C(=O)N(c3ccc([N+](=O)[O-])cc3)N=C2C(=O)O)cc1Oc1ccc(F)cc1 (centres unmarked)
Response: 20
